B1: CCDC89 (parent)
chain: LNAELEEKMMQEAEKLKAQGEYSR

- Variants of: B1
- PROTOCOL DETAILS: protein stability index of a GFP-peptide fusion (GPS, HEK-293T) (PSI 1-6); higher = more stable;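 further: lentivirally expressed fusions sorted by FACS into six bins by GFP to DsRed ratio, PSI derived from sequencing read proportions per bin multiplied by bin number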
- CONDITION CONTEXT: c terminus: a fixed tail appended
ENDPOINT LABEL: protein stability index
Answer field: number only, no words.

Some variants with recorded protein stability index:
LNAELEEKMMQEAEKNKAQGEYSR [L16N]; 5.17
LNAELEEKGMQEAEKLKAQGEYSR [M9G]; 5.05
LNAELEGKMMQEAEKLKAQGEYSR [E7G]; 4.35
LNAELEEKRMQEAEKLKAQGEYSR [M9R]; 5.12
LNAELEEKMMQEAEKVKAQGEYSR [L16V]; 4.97

Switching to the query record.
Would you kindly share the measured protein stability index for LNAELEEKMMQEAHKLKAQGEYSR [E14H] ?
5.41
